Every entry's value here was drawn from patent US11498899B2.

tested on: barnyardgrass (Echinochloa crus-galli); assay: Test A postemergence, visual injury rating 0-100; assay type: in vivo; conditions: 125 g ai/ha, 0 to 100 scale
EXPERIMENTAL_READOUT: Barnyardgrass plant response rating

>>> print(df.to_string())
                                    compound                             test_target                 experimental_readout  measured_result
 0  CC1=[N+]([O-])C(C(=O)Nc2cccc(F)c2F)C(c2ccc(C)c(C)c2)C1 (racemic)  barnyardgrass (Echinochloa crus-galli)  Barnyardgrass plant response rating               90
 1  CC1=[N+]([O-])C(C(=O)Nc2cccc(F)c2F)C(c2ccc(OC(F)(F)F)c(F)c2)C1 (racemic)  barnyardgrass (Echinochloa crus-galli)  Barnyardgrass plant response rating               30
 2  CC1=[N+]([O-])C(C(=O)Nc2cccc(F)c2F)C(c2cc(C)nc(OC(F)F)c2)C1 (racemic)  barnyardgrass (Echinochloa crus-galli)  Barnyardgrass plant response rating               80
 3  CC1=[N+]([O-])C(C)(C(=O)Nc2cccc(F)c2F)C(c2ccc(C(F)(F)F)cc2)C1 (racemic)  barnyardgrass (Echinochloa crus-galli)  Barnyardgrass plant response rating               70
 4  CC1=[N+]([O-])C(C(=O)Nc2cccc(F)c2F)C(c2ccc(F)cc2)C1 (racemic)  barnyardgrass (Echinochloa crus-galli)  Barnyardgrass plant response rating               40
 5  CC1=[N+]([O-])C(C(=O)Nc2cccc(F)c2F)C(c2ccc(Cl)c(F)c2)C1 (racemic)  barnyardgrass (Echinochloa crus-galli)  Barnyardgrass plant response rating               70
 6  CC1=[N+]([O-])C(C(=O)Nc2cccc(F)c2F)C(c2cc(C)cc(F)c2)C1 (racemic)  barnyardgrass (Echinochloa crus-galli)  Barnyardgrass plant response rating               80
 7  CC1=[N+]([O-])C(C(=O)Nc2cccc(F)c2F)C(c2cccc(C(C)C)c2)C1 (racemic)  barnyardgrass (Echinochloa crus-galli)  Barnyardgrass plant response rating               10
 8  CC1=[N+]([O-])C(C(=O)Nc2cccc(F)c2F)C(c2ccccc2C)C1 (racemic)  barnyardgrass (Echinochloa crus-galli)  Barnyardgrass plant response rating               40
 9  CC1=[N+]([O-])C(C(=O)Nc2cccc(F)c2F)C(c2ccc(Br)cn2)C1 (racemic)  barnyardgrass (Echinochloa crus-galli)  Barnyardgrass plant response rating                0
10  CC1=[N+]([O-])C(C(=O)Nc2cccc(F)c2F)C(c2ccc(F)c(Cl)c2)C1 (racemic)  barnyardgrass (Echinochloa crus-galli)  Barnyardgrass plant response rating               50
11  CC1=[N+]([O-])C(C(=O)Nc2cccc(F)n2)C(c2ccc(C(F)(F)F)cc2)C1 (racemic)  barnyardgrass (Echinochloa crus-galli)  Barnyardgrass plant response rating               50
12  CC1=[N+]([O-])C(C(=O)Nc2cccc(F)c2F)C(c2ccc(C(F)(F)F)nc2)C1 (racemic)  barnyardgrass (Echinochloa crus-galli)  Barnyardgrass plant response rating               40
13  CCC1=[N+]([O-])C(C(=O)Nc2cccc(F)c2F)C(c2ccc(C(F)(F)F)cc2)C1 (racemic)  barnyardgrass (Echinochloa crus-galli)  Barnyardgrass plant response rating               20
14  CC(C)C1=[N+]([O-])C(C(=O)Nc2cccc(F)c2F)C(c2ccc(C(F)(F)F)cc2)C1 (racemic)  barnyardgrass (Echinochloa crus-galli)  Barnyardgrass plant response rating                0
15  CC1=[N+]([O-])C(C(=O)Nc2ccccc2S(C)(=O)=O)C(c2ccc(C(F)(F)F)cc2)C1 (racemic)  barnyardgrass (Echinochloa crus-galli)  Barnyardgrass plant response rating               20
16  CC1=[N+]([O-])C(C(=O)Nc2cccc(F)c2F)C(c2ccc(C(F)(F)F)cn2)C1 (racemic)  barnyardgrass (Echinochloa crus-galli)  Barnyardgrass plant response rating                0
17  CC1=[N+]([O-])C(C(=O)Nc2cccc(F)c2F)C(c2cc(C)cc(CF)c2)C1 (racemic)  barnyardgrass (Echinochloa crus-galli)  Barnyardgrass plant response rating               70
18  CC1=[N+]([O-])[C@H](C(=O)Nc2cccc(F)c2F)[C@@H](c2ccc(Cl)cc2)C1  barnyardgrass (Echinochloa crus-galli)  Barnyardgrass plant response rating               90
19  CC1=[N+]([O-])C(C(=O)Nc2cccc(F)c2F)C(c2cccc(Cl)c2)C1 (racemic)  barnyardgrass (Echinochloa crus-galli)  Barnyardgrass plant response rating               80
20  CC1=[N+]([O-])C(C(=O)Nc2cccc(F)c2F)C(c2cc(C)cc(Cl)c2)C1 (stereo not drawn)  barnyardgrass (Echinochloa crus-galli)  Barnyardgrass plant response rating               80
